System: Staphylococcus aureus
Assay: ≥ marks a high value that may be exact or a test limit, other limits are often not marked, values filed in µg/mL are converted to µM
Some compounds, each annotated with its measured MIC.
Recorded Endpoint: MIC

{"Compound": "CC[C@H](C)[C@H](NC(=O)[C@H](CC(=O)O)NC(=O)[C@H](Cc1ccccc1)NC(=O)[C@H](CC(C)C)NC(=O)CN)C(=O)N[C@H](C(=O)N[C@@H](CCCCN)C(=O)N[C@@H](CCCCN)C(=O)N[C@H](C(=O)N[C@@H](C)C(=O)N[C@@H](CO)C(=O)N[C@H](C(=O)N[C@H](C(=O)NCC(=O)NCC(=O)N[C@@H](CC(C)C)C(N)=O)C(C)C)C(C)C)C(C)C)[C@@H](C)CC [GLFDIIKKVASVVGGL]", "Meas Value": "15.5 µM"}
{"Compound": "CC[C@H](C)[C@H](NC(=O)[C@H](CC(C)C)NC(=O)CNC(=O)CNC(=O)[C@H](CC(C)C)NC(=O)[C@@H](N)Cc1ccccc1)C(=O)N[C@@H](CCCCN)C(=O)N[C@@H](Cc1c[nH]c2ccccc12)C(=O)N[C@@H](CCCCN)C(=O)N[C@@H](Cc1c[nH]c2ccccc12)C(=O)N1CCC[C@H]1C(=O)N[C@@H](Cc1c[nH]c2ccccc12)C(=O)N[C@@H](Cc1c[nH]c2ccccc12)C(=O)N1CCC[C@H]1C(=O)N[C@@H](Cc1c[nH]c2ccccc12)C(=O)N[C@@H](CCCN=C(N)N)C(=O)N[C@@H](CCCN=C(N)N)C(N)=O [FLGGLIKWKWPWWPWRR]", "Meas Value": "3.38 µM"}
